// relative viability lookup, one value per entry
System: NCI-H460
Test: relative viability (nuclei count vs DMSO), 5 days (fraction); higher = more cells survive
Run parameters: first compound 0.3162 µM

[
  {
    "Molecule": "NC(=O)Nc1cc(-c2cccc(F)c2)sc1C(=O)N[C@H]1CCCNC1 [AZD7762] + Nc1nc2[nH]cc(CCc3ccc(C(=O)N[C@@H](CCC(=O)O)C(=O)O)cc3)c2c(=O)[nH]1 [Pemetrexed] (partner 0.2 µM)",
    "relative viability": 0.0462
  },
  {
    "Molecule": "NC(=O)Nc1cc(-c2cccc(F)c2)sc1C(=O)N[C@H]1CCCNC1 [AZD7762] + CCNC(=O)c1noc(-c2cc(C(C)C)c(O)cc2O)c1-c1ccc(CN2CCOCC2)cc1 [Luminespib] (partner 0.01 µM)",
    "relative viability": 0.026
  },
  {
    "Molecule": "NC(=O)Nc1cc(-c2cccc(F)c2)sc1C(=O)N[C@H]1CCCNC1 [AZD7762] + N=C(N)NC(=N)NCCc1ccccc1 [Phenformin] (partner 250 µM)",
    "relative viability": 0.253
  },
  {
    "Molecule": "NC(=O)Nc1cc(-c2cccc(F)c2)sc1C(=O)N[C@H]1CCCNC1 [AZD7762] + Nc1ncn([C@H]2C[C@H](O)[C@@H](CO)O2)c(=O)n1 [Decitabine] (partner 2 µM)",
    "relative viability": 0.26
  },
  {
    "Molecule": "NC(=O)Nc1cc(-c2cccc(F)c2)sc1C(=O)N[C@H]1CCCNC1 [AZD7762] + O=C(CCCCCCC(=O)Nc1ccccc1)NO [Vorinostat] (partner 1 µM)",
    "relative viability": 0.216
  },
  {
    "Molecule": "NC(=O)Nc1cc(-c2cccc(F)c2)sc1C(=O)N[C@H]1CCCNC1 [AZD7762] + Cc1nc(NC(=O)N2CCC[C@H]2C(N)=O)sc1-c1ccnc(C(C)(C)C(F)(F)F)c1 [Alpelisib] (partner 2 µM)",
    "relative viability": 0.293
  },
  {
    "Molecule": "NC(=O)Nc1cc(-c2cccc(F)c2)sc1C(=O)N[C@H]1CCCNC1 [AZD7762] + C[C@]1(O)C[C@@H](c2nc(-c3ccc4ccc(-c5ccccc5)nc4c3)c3c(N)nccn32)C1 [Linsitinib] (partner 1 µM)",
    "relative viability": 0.135
  }
]

* * *

Test system: HCC-78
Test: relative viability (nuclei count vs DMSO), 5 days (fraction); higher = more cells survive
Run parameters: first compound 1.265 µM
Please use YES for relative viability under 0.4 and NO for everything else, ties included.

[
  {
    "Molecule": "O=C(O)c1ccc(-c2c[nH]c3ncc(-c4ccccc4)cc23)cc1C1CCCC1 + Nc1nc2[nH]cc(CCc3ccc(C(=O)N[C@@H](CCC(=O)O)C(=O)O)cc3)c2c(=O)[nH]1 [Pemetrexed] (partner 0.2 µM)",
    "Discrete label": "NO"
  },
  {
    "Molecule": "O=C(O)c1ccc(-c2c[nH]c3ncc(-c4ccccc4)cc23)cc1C1CCCC1 + CC1(C)CCC(c2ccc(Cl)cc2)=C(CN2CCN(c3ccc(C(=O)NS(=O)(=O)c4ccc(N[C@H](CCN5CCOCC5)CSc5ccccc5)c(S(=O)(=O)C(F)(F)F)c4)cc3)CC2)C1 [Navitoclax] (partner 0.5 µM)",
    "Discrete label": "NO"
  },
  {
    "Molecule": "O=C(O)c1ccc(-c2c[nH]c3ncc(-c4ccccc4)cc23)cc1C1CCCC1 + Nc1ncn([C@H]2C[C@H](O)[C@@H](CO)O2)c(=O)n1 [Decitabine] (partner 2 µM)",
    "Discrete label": "NO"
  },
  {
    "Molecule": "O=C(O)c1ccc(-c2c[nH]c3ncc(-c4ccccc4)cc23)cc1C1CCCC1 + CS(=O)(=O)CCNCc1ccc(-c2ccc3ncnc(Nc4ccc(OCc5cccc(F)c5)c(Cl)c4)c3c2)o1 [Lapatinib] (partner 2 µM)",
    "Discrete label": "NO"
  },
  {
    "Molecule": "O=C(O)c1ccc(-c2c[nH]c3ncc(-c4ccccc4)cc23)cc1C1CCCC1 + CS(=O)(=O)N1CCN(Cc2cc3nc(-c4cccc5[nH]ncc45)nc(N4CCOCC4)c3s2)CC1 [Pictilisib] (partner 1 µM)",
    "Discrete label": "YES"
  },
  {
    "Molecule": "O=C(O)c1ccc(-c2c[nH]c3ncc(-c4ccccc4)cc23)cc1C1CCCC1 + O=C(c1cc(Cc2n[nH]c(=O)c3ccccc23)ccc1F)N1CCN(C(=O)C2CC2)CC1 [Olaparib] (partner 8 µM)",
    "Discrete label": "NO"
  },
  {
    "Molecule": "O=C(O)c1ccc(-c2c[nH]c3ncc(-c4ccccc4)cc23)cc1C1CCCC1 + COc1cc2c(Oc3ccc(NC(=O)C4(C(=O)Nc5ccc(F)cc5)CC4)cc3F)ccnc2cc1OCCCN1CCOCC1 [Foretinib] (partner 0.25 µM)",
    "Discrete label": "NO"
  },
  {
    "Molecule": "O=C(O)c1ccc(-c2c[nH]c3ncc(-c4ccccc4)cc23)cc1C1CCCC1 + Cc1cc(Nc2cc(N3CCN(C)CC3)nc(Sc3ccc(NC(=O)C4CC4)cc3)n2)n[nH]1 [Tozasertib] (partner 0.1 µM)",
    "Discrete label": "YES"
  },
  {
    "Molecule": "O=C(O)c1ccc(-c2c[nH]c3ncc(-c4ccccc4)cc23)cc1C1CCCC1 + C[C@@H](Oc1cc(-c2cnn(C3CCNCC3)c2)cnc1N)c1c(Cl)ccc(F)c1Cl [Crizotinib] (partner 1 µM)",
    "Discrete label": "YES"
  },
  {
    "Molecule": "O=C(O)c1ccc(-c2c[nH]c3ncc(-c4ccccc4)cc23)cc1C1CCCC1 + O=C(CCCCCCC(=O)Nc1ccccc1)NO [Vorinostat] (partner 1 µM)",
    "Discrete label": "NO"
  }
]
